Molecular target: hCGRP receptor (CALCRL:RAMP1) (Homo sapiens, UniProt O60894+Q16602)
Construct: host or cells: GeneBLAzer CALCRL:RAMP1-CRE-bla Freestyle 293F
Sequence (Q16602 23-461): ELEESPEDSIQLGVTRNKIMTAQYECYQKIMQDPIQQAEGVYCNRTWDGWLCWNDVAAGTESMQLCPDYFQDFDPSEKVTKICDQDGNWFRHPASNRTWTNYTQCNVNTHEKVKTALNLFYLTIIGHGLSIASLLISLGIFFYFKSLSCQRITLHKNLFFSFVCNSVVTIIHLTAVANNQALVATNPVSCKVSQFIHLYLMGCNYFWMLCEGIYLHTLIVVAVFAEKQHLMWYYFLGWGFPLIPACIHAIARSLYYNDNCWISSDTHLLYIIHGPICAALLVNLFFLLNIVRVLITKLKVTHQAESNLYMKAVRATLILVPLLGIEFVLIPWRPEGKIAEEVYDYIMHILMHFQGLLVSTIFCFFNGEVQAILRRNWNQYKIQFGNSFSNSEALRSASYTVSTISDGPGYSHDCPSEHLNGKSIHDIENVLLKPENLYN
Sequence (O60894 27-148): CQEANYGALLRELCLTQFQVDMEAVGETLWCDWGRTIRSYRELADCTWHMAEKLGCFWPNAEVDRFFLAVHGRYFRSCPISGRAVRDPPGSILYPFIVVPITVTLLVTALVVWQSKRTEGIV
Assay: CGRP receptor antagonist activity measured by cAMP assay (HTRF)
Type: cell-based
Conditions: % MPE: percent of the maximal possible effect; agonist human α-CGRP; read-out: hCGRP-R Efficacy Antag (%) Ave
Source text: Example 6: CGRP Receptor Antagonist Activity Measured by cAMP Assay CGRP receptor agonists increase intracellular cyclic adenosine mono-phosphate (cAMP). CGRP receptor antagonists can reduce the agonist effect. […]
Bridge positions count the residues as written; N and C are the ends. Square brackets hold non-standard residues; d marks the D form. Peptide text beside a SMILES is read from it. * marks the point of attachment. Phe(2-CONH2) = NC(=O)c1ccccc1C[C@H](N)C(=O)O; Benzoyl(4-F) = O=C(c1ccc(F)cc1)*; 3Pal = N[C@@H](Cc1cccnc1)C(=O)O; X7 = O=C(c1cc(F)ccn1)*; X6 = O=C(c1ccncn1)*
Emax overview
endpointLabel: Emax (%)

# compound, endpointLabel, endpointResult
records = [
    ("CC(C)[C@@H]1NC(=O)[C@H](CC(=O)O)NC(=O)[C@H](CCCNC(=N)N)NC(=O)[C@@H](NC(=O)[C@H](Cc2ccc(O)cc2)NC(=O)[C@H](NC(=O)c2cc(F)ccn2)C(C)C)CSSC[C@@H](C(=O)N[C@@H](Cc2cccnc2)C(N)=O)NC(=O)[C@H](Cc2ccccc2)NC(=O)[C@@H]2CCCN2C(=O)CNC1=O [Compound 18] (X7-[dV]YCRDVGPFC[3Pal]-NH2; disulfide 3-10)", "Emax", 100),
    ("CC(C)[C@@H]1NC(=O)[C@H](CC(=O)O)NC(=O)[C@H](CCCNC(=N)N)NC(=O)[C@@H](NC(=O)[C@H](Cc2ccc(O)cc2)NC(=O)[C@H](NC(=O)c2ccncn2)C(C)C)CSSC[C@@H](C(=O)N[C@@H](Cc2cccnc2)C(N)=O)NC(=O)[C@H](Cc2ccccc2)NC(=O)[C@@H]2CCCN2C(=O)CNC1=O [Compound 16] (X6-[dV]YCRDVGPFC[3Pal]-NH2; disulfide 3-10)", "Emax", 100),
    ("CC(C)[C@@H]1NC(=O)[C@H](CC(=O)O)NC(=O)[C@H](CCCNC(=N)N)NC(=O)[C@@H](NC(=O)[C@H](Cc2ccccc2C(N)=O)NC(=O)[C@H](NC(=O)c2ccc(F)cc2)C(C)C)CSSC[C@@H](C(=O)N[C@@H](Cc2cccnc2)C(N)=O)NC(=O)[C@H](Cc2ccccc2)NC(=O)[C@@H]2CCCN2C(=O)CNC1=O [Compound 15] ({Benzoyl(4-F)}-[dV][Phe(2-CONH2)]CRDVGPFC[3Pal]-NH2; disulfide 3-10)", "Emax", 100),
]
